Measured protein stability index, listed per entry.
B1: KIAA1161 (parent)
chain: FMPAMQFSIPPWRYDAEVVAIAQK

Variants of: B1
Assay: protein stability index of a GFP-peptide fusion (GPS, HEK-293T) (PSI 1-6); higher = more stable;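 note: lentivirally expressed fusions sorted by FACS into six bins by GFP to DsRed ratio, PSI derived from sequencing read proportions per bin multiplied by bin number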
Conditions: c terminus: a fixed tail appended

I9A ... 2
A22D ... 1.96

Any idea what its protein stability index is? The variant is "I9M" 2.04
